Overview of reported microsomal CLint at 1 uM across a group of compounds:
experiment: Metabolic stability in human hepatic microsome
Format: in vitro ADME
experimental-parameters: human, microsomes, pH 7.4, CL NADPH(+)
Starred links: 1 amine or outer side, 2 acyl side, 3 side chain; linkers in the order of their positions; H or OH if unused. Positions of bridges follow the written chain, without caps; N, C: chain ends. Non-standard residues stand in square brackets, D forms with d. Residues, ends and D or L forms follow the SMILES beside them. ξ: configuration not given here. *: point of attachment. NMeF = CN[C@@H](Cc1ccccc1)C(=O)O; NMeGABA = CN(CCCC(=O)[*:2])[*:1]; NMeL = CN[C@@H](CC(C)C)C(=O)O; ξNMeF = CNC(Cc1ccccc1)C(=O)O; NMeV = CN[C@H](C(=O)O)C(C)C; NMeA = CN[C@@H](C)C(=O)O; Piperidide = C1CCN(*)CC1; β3hA = C[C@H](N)CC(=O)O; Sar = CNCC(=O)O
Give a bare numeral; the unit µL/min/mg is implied.

* CC[C@H](C)[C@@H]1NC(=O)[C@H](C)N(C)C(=O)[C@H](CC(C)C)N(C)C(=O)[C@H](Cc2ccccc2)NC(=O)[C@H]([C@@H](C)O)NC(=O)[C@H](C(C)C)N(C)C(=O)[C@H](C)N(C)C(=O)CN(C)C(=O)[C@@H](C(C)C)NC(=O)C[C@@H](C(=O)N(C)C(Cc2ccccc2)C(=O)N(C)[C@@H](Cc2ccccc2)C(=O)N[C@@H](C)C(=O)N2CCCCC2)NC1=O (some centres unmarked) [DP-293] ([dV][Sar][NMeA][NMeV]TF[NMeL][NMeA]ID[ξNMeF][NMeF]A-Piperidide; lactam N-10) | 29

IN: What value of microsomal CLint at 1 uM has been recorded for this entry: CC[C@H](C)[C@@H]1NC(=O)[C@H](CC(C)C)N(C)C(=O)[C@H](C)NC(=O)CCCN(C)C(=O)C[C@H](C)NC(=O)[C@H]([C@@H](C)O)NC(=O)[C@H](Cc2ccccc2)NC(=O)[C@H](C(C)C)N(C)C(=O)[C@H](C)N(C)C(=O)[C@H](Cc2ccccc2)N(C)C1=O [DP-778] (cyclo(A[NMeL]I[NMeF][NMeA][NMeV]FT[β3hA][NMeGABA]))
OUT: 139

----------
experiment: Metabolic stability in human hepatic microsome
Format: in vitro ADME
experimental-parameters: microsomes, pH 7.4; human hepatic microsome, NADPH(+); read-out: CL NADPH(+)
Starred links: 1 amine or outer side, 2 acyl side, 3 side chain; linkers in the order of their positions; H or OH if unused. Positions of bridges follow the written chain, without caps; N, C: chain ends. Non-standard residues stand in square brackets, D forms with d. Residues, ends and D or L forms follow the SMILES beside them. *: point of attachment. Phe(3-(CH2)4CO) = O=C([C@H](Cc1cccc(CCCCC(=O)[*:3])c1)N[*:1])[*:2]; NMeF = CN[C@@H](Cc1ccccc1)C(=O)O; NMeI = CC[C@H](C)[C@H](NC)C(=O)O; NMeL = CN[C@@H](CC(C)C)C(=O)O; NMeV = CN[C@H](C(=O)O)C(C)C; NMeA = CN[C@@H](C)C(=O)O; Piperidide = C1CCN(*)CC1; Sar = CNCC(=O)O; tBu = CC(C)(C)*
# microsomal CLint at 1 uM annotations
Value expressed in µL/min/mg; do not type the unit.

Recorded results for 4 compounds are shown here.
• CC[C@H](C)[C@H](NC(=O)[C@H](C)N(C)C(=O)[C@@H]1CC(=O)N[C@H](C(C)C)C(=O)N(C)[C@@H](C)C(=O)N(C)[C@@H](CC(C)C)C(=O)N(C)[C@@H](CC(C)C)C(=O)N(C)CC(=O)N(C)[C@@H](Cc2ccccc2)C(=O)N[C@@H](C)C(=O)N(C)[C@@H](Cc2ccccc2)C(=O)N(C)[C@@H](CC(C)C)C(=O)N[C@@H]([C@@H](C)O)C(=O)N1)C(=O)N1CCCCC1 [DP-584] ([dV][NMeA][NMeL][NMeL][Sar][NMeF]A[NMeF][NMeL]TD[NMeA]I-Piperidide; lactam N-11) = 20
• CNC(=O)CC[C@@H]1NC(=O)[C@H](CC(C)C)N(C)C(=O)[C@H](C)N(C)C(=O)[C@H](CC(C)C)N(C)C(=O)[C@H](Cc2ccccc2)NC(=O)[C@H](Cc2ccccc2)N(C)C(=O)[C@H](CC(C)C)NC(=O)[C@H](CC(C)C)N(C)C(=O)[C@H](C)N(C)C(=O)[C@@H](C(C)C)NC(=O)C[C@@H](C(=O)N2CCCCC2)NC1=O [DP-626] ([dV][NMeA][NMeL]L[NMeF]F[NMeL][NMeA][NMeL]E(NHMe)D-Piperidide; lactam N-11) = 28
• CC[C@H](C)[C@@H]1NC(=O)[C@H](CC(C)C)N(C)C(=O)CN(C)C(=O)[C@H]([C@@H](C)O)NC(=O)[C@H](C)N(C)C(=O)[C@H](Cc2ccccc2)NC(=O)[C@H](CC(C)C)N(C)C(=O)[C@H](C)N(C)C(=O)C[C@@H](C(=O)N(C)[C@@H](Cc2ccccc2)C(=O)N(C)[C@@H](Cc2ccccc2)C(=O)N[C@@H](C)C(=O)N2CCCCC2)NC(=O)[C@H](C(C)C)N(C)C1=O [DP-459] ([NMeA][NMeL]F[NMeA]T[Sar][NMeL]I[NMeV]D[NMeF][NMeF]A-Piperidide; lactam N-10) = 143
• CC[C@H](C)[C@@H]1NC(=O)[C@H](Cc2ccccc2)NC(=O)[C@@H]2CCCN2C(=O)[C@H](CC(C)C)N(C)C(=O)[C@H](Cc2ccccc2)NC(=O)[C@H](CC(C)C)NC(=O)[C@H]([C@@H](C)O)NC(=O)[C@H](C)N(C)C(=O)[C@H](C(C)C)NC(=O)CCCCc2cccc(c2)C[C@@H](C(=O)N2CCCCC2)NC(=O)[C@H](CC(C)C)NC(=O)CN(C)C1=O [DP-900] (V[NMeA]TLF[NMeL]PFI[Sar]L[Phe(3-(CH2)4CO)]-Piperidide; lactam N-12) = 244

IN: Quick check: microsomal CLint at 1 uM of CC[C@H](C)[C@H]1C(=O)N(C)[C@@H](C)C(=O)N(C)[C@@H](CC(C)C)C(=O)N[C@@H](COC(C)(C)C)C(=O)N(C)[C@@H](CC(C)C)C(=O)N[C@H](C(=O)N2CCCCC2)CC(=O)N(C)[C@@H](C)C(=O)N(C)[C@@H](Cc2ccccc2)C(=O)N[C@@H](C)C(=O)N(C)[C@@H](CC(C)C)C(=O)N[C@@H]([C@@H](C)O)C(=O)N[C@@H](Cc2ccccc2)C(=O)N1C [DP-90] ([NMeA][NMeF]A[NMeL]TF[NMeI][NMeA][NMeL]S(tBu)[NMeL]D-Piperidide; lactam N-12) ?
OUT: 30

----------
// reported microsomal CLint at 1 uM for each item listed
experiment: Metabolic stability in human hepatic microsome
Type: in vitro ADME
experimental-parameters: microsomes, pH 7.4; human hepatic microsome, NADPH(+); read-out: CL NADPH(+)
Positions of bridges follow the written chain, without caps; N, C: chain ends. Non-standard residues stand in square brackets, D forms with d. Residues, ends and D or L forms follow the SMILES beside them. *: point of attachment. NMeF = CN[C@@H](Cc1ccccc1)C(=O)O; hPhe = N[C@@H](CCc1ccccc1)C(=O)O; NMeL = CN[C@@H](CC(C)C)C(=O)O; NMeV = CN[C@H](C(=O)O)C(C)C; NMeA = CN[C@@H](C)C(=O)O; Piperidide = C1CCN(*)CC1; Sar = CNCC(=O)O

// below: answered compounds
* CC(C)C[C@H]1C(=O)N(C)[C@@H](C(C)C)C(=O)N(C)[C@@H](C)C(=O)N[C@@H](CCc2ccccc2)C(=O)N(C)[C@@H](C)C(=O)N[C@H](C(=O)N2CCCCC2)CC(=O)N(C)[C@@H](C)C(=O)N[C@@H]([C@@H](C)O)C(=O)N(C)[C@@H](C)C(=O)N[C@@H](C)C(=O)N(C)[C@@H](Cc2ccccc2)C(=O)N1C [DP-734] ([NMeA]T[NMeA]A[NMeF][NMeL][NMeV][NMeA][hPhe][NMeA]D-Piperidide; lactam N-11) | 84 µL/min/mg
* CC[C@H](C)[C@@H]1NC(=O)[C@H](CC(C)C)N(C)C(=O)[C@H](CC(C)C)N(C)C(=O)[C@H](C)N(C)C(=O)[C@H]([C@@H](C)O)NC(=O)[C@H](C(C)C)N(C)C(=O)[C@H](Cc2ccccc2)NC(=O)CN(C)C(=O)[C@H](C)N(C)C(=O)C[C@@H](C(=O)N2CCCCC2)NC1=O [DP-439] ([NMeA][Sar]F[NMeV]T[NMeA][NMeL][NMeL]ID-Piperidide; lactam N-10) | 139 µL/min/mg

Now consider the entry below.
IN: Form field: reported microsomal CLint at 1 uM of CC[C@H](C)[C@@H]1NC(=O)[C@H](C)N(C)C(=O)[C@H](C)N(C)C(=O)C[C@@H](C(=O)N2CCCCC2)NC(=O)[C@H](CC(C)C)N(C)C(=O)[C@H](Cc2ccccc2)N(C)C(=O)[C@H](C)N(C)C(=O)[C@H]([C@@H](C)O)NC(=O)[C@H](Cc2ccccc2)N(C)C(=O)[C@H](CC(C)C)N(C)C1=O [DP-258] ([NMeA][NMeA]I[NMeL][NMeF]T[NMeA][NMeF][NMeL]D-Piperidide; lactam N-10)
OUT: 188 µL/min/mg
